- TEST_TARGET: ETS1 (UniProt P14921)
- Sequence: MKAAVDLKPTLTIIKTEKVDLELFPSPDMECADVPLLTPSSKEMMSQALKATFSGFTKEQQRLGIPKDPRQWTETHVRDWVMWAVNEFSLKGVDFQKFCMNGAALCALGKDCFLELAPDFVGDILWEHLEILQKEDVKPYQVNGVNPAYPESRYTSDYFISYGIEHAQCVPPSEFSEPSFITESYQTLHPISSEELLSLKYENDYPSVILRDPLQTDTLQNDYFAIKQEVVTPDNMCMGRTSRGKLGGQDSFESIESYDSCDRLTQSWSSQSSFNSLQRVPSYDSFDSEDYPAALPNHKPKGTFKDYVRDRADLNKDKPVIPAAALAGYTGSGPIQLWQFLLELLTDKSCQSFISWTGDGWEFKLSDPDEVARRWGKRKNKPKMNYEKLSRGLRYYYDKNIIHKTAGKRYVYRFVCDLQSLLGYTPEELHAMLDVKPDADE
- METHOD_SUMMARY: ETS1 binding intensity (PBM fluorescence) in presence of RUNX1, normalised to ETS1-only experiment (arbitrary fluorescence units); higher = stronger binding
- CONDITION_PARAMETERS: ETS1 concentration 1 nM; RUNX1 concentration 25 nM
PARAMETER_MEASURED: ETS1 binding intensity

- AGAGCAACAGGATGCAAATAACCACAAGCAAGAATA: 4180
- TCACCTCATCACAGGAAACCGCGAGCACCTCCTCCT: 5440
- GAGGCCGAAAGGAAGTTTGAGGTTAAGCACAAGATG: 1900
- GAGCATAGCCTAGCAGGATGTGGTTAAATACATTTG: 32800
